Ref: patent US6043217A

# Tested on: Staphylococcus aureus Smith
# procedure details: MIC, standard serial dilution method
# Assay type: cell-based
# setup conditions: Muller-Hinton agar medium, 37° C.
assay readout: Minimum growth inhibitory concentrations (MIC.)

Incoming: # get_value(readout='Minimum growth inhibitory concentrations (MIC.)', item= CNC(=O)CC1NC(=O)c2csc(n2)-c2ccc(-c3nc(C(=O)NCCCCCC(=O)O)cs3)nc2-c2csc(n2)-c2csc(n2)C(C(C)C)NC(=O)CNC(=O)c2csc(n2)C(C(C)C)NC(=O)c2nc1sc2C (stereo not drawn) )
Outgoing: 0.1 µg/mL

Incoming: # get_value(readout='Minimum growth inhibitory concentrations (MIC.)', item= CNC(=O)CC1NC(=O)c2csc(n2)-c2ccc(-c3nc(C(=O)NCCCN(C)CCCNCCc4ccc(Cl)cc4)cs3)nc2-c2csc(n2)-c2csc(n2)C(C(C)C)NC(=O)CNC(=O)c2csc(n2)C(C(C)C)NC(=O)c2nc1sc2C (stereo not drawn) )
Outgoing: > 100 µg/mL

Incoming: # get_value(readout='Minimum growth inhibitory concentrations (MIC.)', item= CNC(=O)CC1NC(=O)c2csc(n2)-c2ccc(-c3nc(C(=O)NCCCCCC(=O)OC)cs3)nc2-c2csc(n2)-c2csc(n2)C(C(C)C)NC(=O)CNC(=O)c2csc(n2)C(C(C)C)NC(=O)c2nc1sc2C (stereo not drawn) )
Outgoing: > 100 µg/mL

Incoming: # get_value(readout='Minimum growth inhibitory concentrations (MIC.)', item= CCCCNCCCNCCCNC(=O)c1csc(-c2ccc3c(n2)-c2csc(n2)-c2csc(n2)C(C(C)C)NC(=O)CNC(=O)c2csc(n2)C(C(C)C)NC(=O)c2nc(sc2C)C(CC(=O)NC)NC(=O)c2csc-3n2)n1 (stereo not drawn) )
Outgoing: 25 µg/mL

Incoming: # get_value(readout='Minimum growth inhibitory concentrations (MIC.)', item= CNC(=O)CC1NC(=O)c2csc(n2)-c2ccc(-c3nc(C(=O)NCCCN(C)CCCN)cs3)nc2-c2csc(n2)-c2csc(n2)C(C(C)C)NC(=O)CNC(=O)c2csc(n2)C(C(C)C)NC(=O)c2nc1sc2C (stereo not drawn) )
Outgoing: 12.5 µg/mL

Incoming: # get_value(readout='Minimum growth inhibitory concentrations (MIC.)', item= CNC(=O)CC1NC(=O)c2csc(n2)-c2ccc(-c3nc(C(=O)NCCCN)cs3)nc2-c2csc(n2)-c2csc(n2)C(C(C)C)NC(=O)CNC(=O)c2csc(n2)C(C(C)C)NC(=O)c2nc1sc2C (stereo not drawn) )
Outgoing: 3.12 µg/mL
